# IgG2 IC50 (nM), inhibition of PCSK9 (LDL uptake assay) values compiled below
target desc: human PCSK9 (human, UniProt Q8NBP7 31-692)
Sequence (Q8NBP7 31-692 limits assumed): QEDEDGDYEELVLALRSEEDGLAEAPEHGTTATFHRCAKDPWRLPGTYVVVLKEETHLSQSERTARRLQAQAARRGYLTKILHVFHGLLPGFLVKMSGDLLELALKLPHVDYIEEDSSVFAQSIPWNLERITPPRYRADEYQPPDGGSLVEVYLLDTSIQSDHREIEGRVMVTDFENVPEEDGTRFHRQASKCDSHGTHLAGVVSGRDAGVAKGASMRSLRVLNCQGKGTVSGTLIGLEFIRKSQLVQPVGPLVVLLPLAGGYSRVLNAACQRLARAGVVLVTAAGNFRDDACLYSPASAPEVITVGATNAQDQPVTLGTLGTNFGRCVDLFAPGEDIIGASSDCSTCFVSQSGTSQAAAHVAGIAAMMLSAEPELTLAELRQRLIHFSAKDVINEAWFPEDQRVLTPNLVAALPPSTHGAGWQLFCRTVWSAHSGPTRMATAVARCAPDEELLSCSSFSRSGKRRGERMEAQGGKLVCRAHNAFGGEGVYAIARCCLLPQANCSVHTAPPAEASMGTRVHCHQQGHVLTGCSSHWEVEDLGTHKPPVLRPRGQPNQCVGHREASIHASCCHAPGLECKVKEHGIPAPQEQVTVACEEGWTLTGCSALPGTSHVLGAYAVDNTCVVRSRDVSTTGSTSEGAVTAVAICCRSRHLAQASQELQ
measurement notes: cell-based or functional assay
Express your answer in nM, writing the number without its unit.

>>> numeric_value("AX137 IgG2 (antibody, V domains shown) VH: EVQLLESGGGLVQPGGSLRLSCKASGYTFSSYGMYWVRQAPGKGLEWIGWIDPGSGGTKYNEKFKGKATISRDNSKNTLYLQMNSLRAEDTAVYYCARERYGYYFDYWGQGTLVTVSS VL: EIVLTQSPATLSLSPGERATITCRASQYIGSYLNWYQQKPGQAPRLLIYDASNRATGIPARFSGSGSGTDFTLTISSLEPEDFAVYYCQAWDSSPPVVFGGGTKVEIK")
9.8
>>> numeric_value("AX212 IgG2 (antibody, V domains shown) VH: QVQLLESGGGLVQPGGSLRLSCKASGYTFSSYSFSWVRQAPGKGLEWIGYIDPGSGGTKYNQKFQGKATISRDNSKNTLYLQMNSLRAEDTAVYYCARQRVGYSLDYWGQGTLVTVSS VL: EIVLTQSPATLSLSPGERATITCRASQYVGSYLNWYQQKPGQAPRLLIYDASNRATGIPARFSGSGSGTDFTLTISSLEPEDFAVYYCQVWDSSPPVVFGGGTKVEIK")
9.5
>>> numeric_value("AX213 IgG2 (antibody, V domains shown) VH: EVQLLESGGGLVQPGGSLRLSCKASGYTFSRYGINWVRQAPGKGLEWIGRIDPGNGGTRYNEKFKGKATISRDNSKNTLYLQMNSLRAEDTAVYYCARANDGYSFDYWGQGTLVTVSS VL: EIVLTQSPATLSLSPGERATITCRASQYVGSYLNWYQQKPGQAPRLLIYDASNRATGIPARFSGSGSGTDFTLTISSLEPEDFAVYYCQVWDSSPPVVFGGGTKVEIKR")
11.1
>>> numeric_value("AX211 IgG2 (antibody, V domains shown) VH: QVQLLESGGGLVQPGGSLRLSCKASGYTFSRQGFTWVRQAPGKGLEWIGWIDPGNGGTRYNEKFKGKATISRDNSKNTLYLQMNSLRAEDTAVYYCARYRVGYSLDYWGQGTLVTVSS VL: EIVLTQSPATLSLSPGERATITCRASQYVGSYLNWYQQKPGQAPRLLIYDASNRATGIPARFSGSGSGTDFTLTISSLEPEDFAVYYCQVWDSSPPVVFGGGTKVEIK")
7.5
>>> numeric_value("AX210 IgG2 (antibody, V domains shown) VH: QVQLLESGGGLVQPGGSLRLSCKASGYTFSSYSIYWVRQAPGKGLEWIGWIDPGNGGTRYNQKFQSKATISRDNSKNTLYLQMNSLRAEDTAVYYCARARVGYSLDYWGQGTLVTVSS VL: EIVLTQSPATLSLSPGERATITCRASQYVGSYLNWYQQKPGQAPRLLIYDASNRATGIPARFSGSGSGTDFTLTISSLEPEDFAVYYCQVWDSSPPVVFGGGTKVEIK")
6.5

Let us move to another entry and its IgG2 IC50 (nM), inhibition of PCSK9 (LDL uptake assay).
Prompt line: // fetch IgG2 IC50 (nM), inhibition of PCSK9 (LDL uptake assay) given entry AX114 IgG2 (antibody, V domains shown) VH: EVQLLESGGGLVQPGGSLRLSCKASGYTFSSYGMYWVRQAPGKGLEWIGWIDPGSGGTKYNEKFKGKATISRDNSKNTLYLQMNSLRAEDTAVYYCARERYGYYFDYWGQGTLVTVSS VL: EIVLTQSPATLSLSPGERATITCRASQYVGTYLNWYQQKPGQAPRLLIYDASNRATGIPARFSGSGSGTDFTLTISSLEPEDFAVYYCQVWDSSPPVAFGGGTKVEIK
Response line: 36.6
